Attribution: ChEMBL document CHEMBL4673285

assay: Clearance in male Sprague-Dawley rat at 4 mg/kg, iv measured up to 24 hrs by LC-MS/MS analysis; type: ADME, organism-based; conditions: in vivo
assay_readout: clearance

Give the measured clearance for Cc1cc(CN[C@H](CO)C(=O)O)c(OCc2cncc(C#N)c2)cc1NCc1cccc(-c2ccccc2)c1C
74.5 mL/min/kg

###

molecular target: Programmed cell death 1 ligand 1 (Homo sapiens, UniProt Q9NZQ7); experiment: Binding affinity to biotinylated human AVI-PD-L1 assessed as dissociation rate constant by biolayer interferometry
Sequence (Q9NZQ7 whole entry): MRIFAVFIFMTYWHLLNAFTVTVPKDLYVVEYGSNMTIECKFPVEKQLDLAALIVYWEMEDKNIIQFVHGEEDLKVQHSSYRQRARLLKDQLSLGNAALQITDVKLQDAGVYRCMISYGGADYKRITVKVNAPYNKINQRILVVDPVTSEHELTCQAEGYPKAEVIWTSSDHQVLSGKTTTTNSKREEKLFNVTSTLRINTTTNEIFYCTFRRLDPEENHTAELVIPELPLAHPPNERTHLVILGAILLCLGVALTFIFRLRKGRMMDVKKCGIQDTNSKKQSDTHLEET
assay_readout: koff

Please review the following examples before continuing.
Cc1c(CNc2ccc(CN[C@H](CO)C(=O)O)c(OCc3cccc(C#N)c3)c2)cccc1-c1ccccc1 ... 1.18 10^-3/s
Cc1cc(CN[C@H](CO)C(=O)O)c(OCc2cncc(C#N)c2)cc1NCc1cccc(-c2ccccc2)c1C ... 3.53 10^-5/s
COc1cc(NCc2cccc(-c3ccccc3)c2C)c(Cl)cc1CN[C@H](CO)C(=O)O ... 6.64 10^-4/s

Now, please, on to the next compound.
# return koff for Cc1c(CNc2ccc(CN[C@H](CO)C(=O)O)c(OCc3cncc(C#N)c3)c2)cccc1-c1ccccc1 , test system: Programmed cell death 1 ligand 1 (Homo sapiens, UniProt Q9NZQ7)
2.51 10^-4/s

###

biological target: UniProt:Q9NZQ7; assay: Binding affinity to human PD-L1 expressed in CHOK1 cells assessed as inhibition of PD1/PDL1 protein-protein interaction at 500 nM incubated for 30 mins by flow cytometry analysis relative to control; type: cell-based; settings: CHO-K1
Measured Efficacy accompanies every entry in the list below.
Value expressed in %; do not type the unit.

Please review the following examples before continuing.
COc1cc(NCc2cccc(-c3ccccc3)c2C)c(Cl)cc1CN[C@H](CO)C(=O)O ... 98.6
Cc1c(CNc2ccc(CN[C@H](CO)C(=O)O)c(OCc3cccc(C#N)c3)c2)cccc1-c1ccccc1 ... 96.1
Cc1c(CNc2ccc(CN[C@H](CO)C(=O)O)c(OCc3cncc(C#N)c3)c2)cccc1-c1ccccc1 ... 95.9

Give the measured Efficacy for Cc1cc(CN[C@H](CO)C(=O)O)c(OCc2cncc(C#N)c2)cc1NCc1cccc(-c2ccccc2)c1C
97.5

###

test: Plasma concentration in male Sprague-Dawley rat at 15 mg/kg, po measured up to 24 hrs by LC-MS/MS analysis; assay type: ADME, organism-based
assay_readout: concentration at 24 h
Just so you know, I need the unit written after the number.

Give the measured concentration at 24 h for Cc1cc(CN[C@H](CO)C(=O)O)c(OCc2cncc(C#N)c2)cc1NCc1cccc(-c2ccccc2)c1C
0.5 ng/mL

###

experiment: Dose normalized AUClast in male Sprague-Dawley rat at 4 mg/kg, iv measured up to 24 hrs by LC-MS/MS analysis; assay type: ADME, organism-based; settings: in vivo
assay_readout: AUClast/dose (ng·kg·h/mL/mg)
Value expressed in ng·kg·h/mL/mg; do not type the unit.

Give the measured AUClast/dose for Cc1cc(CN[C@H](CO)C(=O)O)c(OCc2cncc(C#N)c2)cc1NCc1cccc(-c2ccccc2)c1C
226

###

Measured Dissociation constant (KD) accompanies every entry in the list below.
target: Programmed cell death 1 ligand 1 (Homo sapiens); test: Binding affinity to biotinylated human AVI-PD-L1 by biolayer interferometry

Please review the following examples before continuing.
Cc1c(CNc2ccc(CN[C@H](CO)C(=O)O)c(OCc3cncc(C#N)c3)c2)cccc1-c1ccccc1 ... 2.96 10^-10M
Cc1cc(CN[C@H](CO)C(=O)O)c(OCc2cncc(C#N)c2)cc1NCc1cccc(-c2ccccc2)c1C ... 1.62 10^-11M
Cc1c(CNc2ccc(CN[C@H](CO)C(=O)O)c(OCc3cccc(C#N)c3)c2)cccc1-c1ccccc1 ... 1.81 10^-9M

Now, please, on to the next compound.
Give the measured Dissociation constant (KD) for COc1cc(NCc2cccc(-c3ccccc3)c2C)c(Cl)cc1CN[C@H](CO)C(=O)O
5.15 10^-10M
